Each item that follows carries a reported pIC50.
# Test system: breast cancer cell lines
# Procedure summary: cells
# Condition summary: Homo sapiens, MCF7, 96 h, read-out: Growth Inhibition IC50
pIC50: −log10 of the molar value.
Readout label: pIC50

* CNC(=O)c1ccc(Nc2nc(OC3CCCC3)c3c(-c4ccc(O)cc4)c[nH]c3n2)c(OC)c1 | 6.77
* CNC(=O)c1ccc(Nc2nc(OC(C)C)c3c(-c4ccc5nc(C)oc5c4)c[nH]c3n2)c(OC)c1 | 7.92

---

Measured pIC50 accompanies every entry in the list below.
# System: breast cancer cell lines
# Procedure summary: cells
# Condition summary: Homo sapiens, MDA-MB-453, 96 h, read-out: Growth Inhibition IC50
pIC50: −log10 of the molar value.
Readout label: pIC50

- CNC(=O)c1ccc(Nc2nc(OC(C)C)c3c(-c4ccc5nc(C)oc5c4)c[nH]c3n2)c(OC)c1: 6.18
- CNC(=O)c1ccc(Nc2nc(OC3CCCC3)c3c(-c4ccc(O)cc4)c[nH]c3n2)c(OC)c1: 5.55

The values you see were collected from patent US9623028B2.
